Biological target: NADPH oxidase 4 (Homo sapiens)
Test: NOX4-dependent H2O2 signal modulators, primary screen, NOX inhibitor project, cell-based, HEK293-NOX4, tetracycline-induced, Amplex Red fluorescence (AID 1160)
Conditions: 45 min, higher = more signal, called active from +8 up or from −8 down
Is z-score at least -0.2? Then true (1). If not, false (0).

compound=COC(=O)C[C@H]1O[C@]2(C(=O)N(C)c3ccccc32)[C@@H](C)[C@@H]1[Si](C)(C)c1ccccc1 measured_on="NADPH oxidase 4 (Homo sapiens)" qualitative_label="true (1)"
compound=O=C1O[C@H](c2ccccc2)[C@H](c2ccccc2)N2[C@H]1[C@@H](C(=O)N1CCCCCCC1)[C@]1(C(=O)Nc3ccc(C#CCCO)cc31)[C@H]2c1ccc(O)cc1 measured_on="NADPH oxidase 4 (Homo sapiens)" qualitative_label="true (1)"
compound=COCCOC(=O)N1C(=O)[C@@]2(c3cc(C#CC4=CCCCC4)ccc31)[C@H](c1ccc(O)cc1)N1[C@H](c3ccccc3)[C@H](c3ccccc3)OC(=O)[C@H]1[C@@H]2C(=O)N1CCc2cc(OC)c(OC)cc2C1 measured_on="NADPH oxidase 4 (Homo sapiens)" qualitative_label="true (1)"
compound=CCOC(=O)C=C1C[C@@H](c2cccc([N+](=O)[O-])c2)O[C@@H](c2cccc([N+](=O)[O-])c2)O1 measured_on="NADPH oxidase 4 (Homo sapiens)" qualitative_label="true (1)"
compound="C=CC[C@]1(C(=O)NCC(O)CO)N=C(c2ccc(OCCCO)cc2)O[C@H]1c1ccccc1CN=[N+]=[N-] (some centres undefined)" measured_on="NADPH oxidase 4 (Homo sapiens)" qualitative_label="true (1)"
compound=C=CC[C@@]1(C(=O)NCCCOC)N=C(c2ccc(OCCCO)cc2)O[C@@H]1c1ccccc1CN=[N+]=[N-] measured_on="NADPH oxidase 4 (Homo sapiens)" qualitative_label="true (1)"
compound=C[N+](C)(C)CCCC[C@@H]1NC(=O)[C@H]2C[C@@H](C(=O)NCCCCCN)[C@@H](c3ccc(O)cc3)N2C1=O measured_on="NADPH oxidase 4 (Homo sapiens)" qualitative_label="true (1)"
compound="C[C@H]1C2[C@H](Cc3ccccc3)NC(=O)[C@]23C(=O)N[C@@H](Cc2ccccc2)C(=O)N2CCC[C@H]2C(=O)NC/C=C/CC/C=C/C3[C@@H]2O[C@]12C (some centres undefined)" measured_on="NADPH oxidase 4 (Homo sapiens)" qualitative_label="true (1)"
compound=COC(=O)[C@@]1(Cc2ccc(F)cc2)[C@H]2c3cc(C(=O)N4CCCC4)n(Cc4ccc(OC(F)(F)F)cc4)c3C[C@H]2CN1C(=O)c1ccccc1 measured_on="NADPH oxidase 4 (Homo sapiens)" qualitative_label="true (1)"
compound=COc1ccc(CCNC(=O)[C@@]2(C)c3ccccc3C(=O)N(Cc3ccc(OC(F)(F)F)cc3)[C@H]2c2ccc(CO)cc2)cc1 measured_on="NADPH oxidase 4 (Homo sapiens)" qualitative_label="false (0)"
compound=COCCOC(=O)N1C(=O)[C@@]2(c3cc(C#CCNC(N)=O)ccc31)[C@H](C(=O)Nc1nc3ccccc3s1)[C@H]1C(=O)O[C@H](c3ccccc3)[C@H](c3ccccc3)N1[C@@H]2c1ccc(O)cc1 measured_on="NADPH oxidase 4 (Homo sapiens)" qualitative_label="false (0)"
compound=[N-]=[N+]=Nc1ccccc1C[C@]1(C(N)=O)COC(c2ccc(OCCCO)cc2)=N1 measured_on="NADPH oxidase 4 (Homo sapiens)" qualitative_label="false (0)"
compound=O=C(O)C1=CC[C@H]2C(=O)N(c3ccccc3)C(=O)[C@@H]12 measured_on="NADPH oxidase 4 (Homo sapiens)" qualitative_label="false (0)"
compound=OCCCc1cc[n+](Cc2cc3c(cc2Br)OCO3)cc1 measured_on="NADPH oxidase 4 (Homo sapiens)" qualitative_label="true (1)"
compound=[N-]=[N+]=NCc1ccccc1[C@H]1OC(c2ccc(OCCCO)cc2)=N[C@@]1(CCS(=O)(=O)c1ccccc1)C(=O)NCCN1CCOCC1 measured_on="NADPH oxidase 4 (Homo sapiens)" qualitative_label="true (1)"
compound="CN1C(=O)C2C(C1=O)C1C=C(CCCO)C2C(C2CC2)N1C (centres undefined)" measured_on="NADPH oxidase 4 (Homo sapiens)" qualitative_label="false (0)"
compound=[N-]=[N+]=Nc1ccccc1C[C@@]1(C(=O)NCc2ccccc2)N=C(c2ccc(OCCCO)cc2)O[C@@H]1c1ccccc1 measured_on="NADPH oxidase 4 (Homo sapiens)" qualitative_label="true (1)"
compound="C[C@]12C(=O)N(CCO)[C@@H]3C(=O)N(c4ccc(Cl)cc4)CC=CC31O[C@@H]1/C=C\\CCCOC(=O)C12 (some centres undefined)" measured_on="NADPH oxidase 4 (Homo sapiens)" qualitative_label="false (0)"
compound=CC(=O)NCCCC[C@@H]1NC(=O)[C@H]2C[C@@H](C(=O)O)[C@@H](c3cccc(OCCO)c3)N2C1=O measured_on="NADPH oxidase 4 (Homo sapiens)" qualitative_label="true (1)"
compound=Cc1ccc(S[C@]2(C(=O)NCc3ccccc3)CC(=O)N(Cc3ccccc3Cl)[C@@H]2c2ccc(CO)cc2)cc1 measured_on="NADPH oxidase 4 (Homo sapiens)" qualitative_label="false (0)"
compound="O=C1C2C=CC(C(O)C3CC=CCC3)N(Nc3ccc([N+](=O)[O-])cc3)C2C(=O)N1c1ccccc1 (centres undefined)" measured_on="NADPH oxidase 4 (Homo sapiens)" qualitative_label="false (0)"
compound=COc1cc(Cc2cc3c(c(CCc4ccccc4)n2)[Si](C(C)C)(C(C)C)O[C@H]3c2ccccc2)cc(OC)c1OC measured_on="NADPH oxidase 4 (Homo sapiens)" qualitative_label="false (0)"
compound=Cc1ccc(N2C(=O)c3ccccc3[C@@H](C(=O)NCCN3CCOCC3)[C@@H]2c2ccc(CO)cc2)nc1 measured_on="NADPH oxidase 4 (Homo sapiens)" qualitative_label="false (0)"
compound=CCOC(=O)C1=C[C@@H](C(C)(C)C)N(S(=O)(=O)c2ccc(C)cc2)[C@H]1c1ccc(OC)cc1 measured_on="NADPH oxidase 4 (Homo sapiens)" qualitative_label="true (1)"
compound=[N-]=[N+]=NCc1ccccc1[C@H]1OC(c2ccc(OCCCO)cc2)=N[C@@]1(Cc1ccccc1N=[N+]=[N-])C(N)=O measured_on="NADPH oxidase 4 (Homo sapiens)" qualitative_label="false (0)"
compound=COc1ccc([Si](C)(C)[C@H]2[C@H](CCO)O[C@@]3(C(=O)N(Cc4ccccc4)c4ccc(NC(=O)[C@H](C)O)cc43)[C@@H]2C)cc1 measured_on="NADPH oxidase 4 (Homo sapiens)" qualitative_label="true (1)"
compound=C=CC[C@H](OC(=O)Nc1ccc(SC)cc1)c1ccc(O)c(F)c1 measured_on="NADPH oxidase 4 (Homo sapiens)" qualitative_label="false (0)"
compound=CC[C@@H](O[Si](C#C[Si](C(C)C)(C(C)C)C(C)C)(C(C)C)C(C)C)c1cn([C@H](C)c2ccccc2)nn1 measured_on="NADPH oxidase 4 (Homo sapiens)" qualitative_label="false (0)"
compound=[N-]=[N+]=Nc1ccccc1C[C@]1(C(=O)N2CCCCC2)N=C(c2ccc(OCCCO)cc2)O[C@H]1c1ccccc1 measured_on="NADPH oxidase 4 (Homo sapiens)" qualitative_label="false (0)"
